For each of the substances below, state its Total response IL-5 Events.
- Tested on: PBMCs from TG allergic donors
- assay-protocol: IL-5 ELISPOT of TG extract-expanded PBMCs from TG allergic donors (peptide pools, single peptides, TG extract)
- Type: cell-based, human
- condition-notes: T cell recognition in TG allergic patients; number of positive events
Answers are plain numbers.

Some substances with known Total response IL-5 Events results, for comparison:
{"substance": "141 (LLGYLLWVVAIRRPR; Phleum pratense) [Peptide 141]", "Total response IL-5 Events": 1}
{"substance": "350 (LKDGSTYSFRFSFIV; Phleum pratense) [Peptide 350]", "Total response IL-5 Events": 1}
{"substance": "527 (TVSDEYLAAVAKARR; Phleum pratense) [Peptide 527]", "Total response IL-5 Events": 0}

stdin: Consider the substance 83 (TIVASGIENMKIFTR; Phleum pratense) [Peptide 83] . State its measured Total response IL-5 Events.
stdout: 0

* * *

- Test system: PBMCs from TG allergic donors
- assay-protocol: IL-5 ELISPOT of TG extract-expanded PBMCs from TG allergic donors (peptide pools, single peptides, TG extract)
- Format: cell-based, human
- condition-notes: number of positive response events in TG allergic patients
endpoint-label: Total response IL-5 Events
Numbers only.

Some entries whose results are on file:
{"substance": "64111 (KNPLKFDNTYFTELL; Phleum pratense) [Peptide 64111]", "Total response IL-5 Events": 1}
{"substance": "4269 (GVIAGLNVLRIINEP; Phleum pratense) [Peptide 4269]", "Total response IL-5 Events": 0}
{"substance": "411 (SSTRGWCSRRRAGRG; Phleum pratense) [Peptide 411]", "Total response IL-5 Events": 0}
{"substance": "48269 (YAVGQKIKAYLEAES; Phleum pratense) [Peptide 48269]", "Total response IL-5 Events": 0}
{"substance": "6119 (KVSKVLNTYIFLLYL; Phleum pratense) [Peptide 6119]", "Total response IL-5 Events": 1}

Here are 2 substances. What values of Total response IL-5 Events were reported for them?
1. 455 (KRPPRCCQDLVVLPL; Phleum pratense) [Peptide 455]
2. 5621 (KIASFLDPDGWKVVL; Phleum pratense) [Peptide 5621]

stdout:
1: 0; 2: 0

* * *

- Tested on: PBMCs from TG allergic donors
- assay-protocol: IL-5 ELISPOT of TG extract-expanded PBMCs from TG allergic donors (peptide pools, single peptides, TG extract)
- Type: cell-based, human
- condition-notes: IL-5; total SFC
endpoint-label: Total response IL-5 SFC (SFC)
One number for each entry, in SFC.

Some solved entries appear below for comparison.
{"substance": "350 (LKDGSTYSFRFSFIV; Phleum pratense) [Peptide 350]", "Total response IL-5 SFC (SFC)": 20}
{"substance": "30285 (VFNDDIQGTASVVLA; Phleum pratense) [Peptide 30285]", "Total response IL-5 SFC (SFC)": 67}
{"substance": "141 (LLGYLLWVVAIRRPR; Phleum pratense) [Peptide 141]", "Total response IL-5 SFC (SFC)": 110}

stdin: Consider the substance 252 (SAPALRILRSFPSHS; Phleum pratense) [Peptide 252] tested on PBMCs from TG allergic donors; state its Total response IL-5 SFC.
stdout: 97

* * *

Please respond with reported Total response IFNg Events for every item in the list.
- Tested on: PBMCs from TG allergic donors
- assay-protocol: IFNg ELISPOT of TG extract-expanded PBMCs from TG allergic donors (single peptides)
- Type: cell-based, human
- condition-notes: T cell recognition in TG allergic patients; number of response events
One number for each entry.

{"substance": "252 (SAPALRILRSFPSHS; Phleum pratense) [Peptide 252]", "system-tested": "PBMCs from TG allergic donors", "measured-value": 1}

// input: 3 substances below; output: Total response IFNg Events for each
1. 375 (EEAASTLPGLSSSTL; Phleum pratense) [Peptide 375]
2. 30285 (VFNDDIQGTASVVLA; Phleum pratense) [Peptide 30285]
3. 26138 (KVINDRFGIVEGLMT; Phleum pratense) [Peptide 26138]

stdout:
1. 0
2. 0
3. 1

* * *

- Tested on: PBMCs from TG allergic donors
- assay-protocol: IL-5 ELISPOT of TG extract-expanded PBMCs from TG allergic donors (peptide pools, single peptides, TG extract)
- Format: cell-based, human
- condition-notes: T cell recognition in TG allergic patients; number of response events
Consider the following substances; for each one, report its Total response IL-5 Events.
Answers are plain numbers.

Below are worked cases with known answers.
{"substance": "26138 (KVINDRFGIVEGLMT; Phleum pratense) [Peptide 26138]", "Total response IL-5 Events": 0}
{"substance": "252 (SAPALRILRSFPSHS; Phleum pratense) [Peptide 252]", "Total response IL-5 Events": 1}
{"substance": "375 (EEAASTLPGLSSSTL; Phleum pratense) [Peptide 375]", "Total response IL-5 Events": 0}

// switching to the query substance
stdin: Give Total response IL-5 Events for 30285 (VFNDDIQGTASVVLA; Phleum pratense) [Peptide 30285]
stdout: 1
